pKi values recorded for UniProtKB P08908
Sequence (P08908 whole entry): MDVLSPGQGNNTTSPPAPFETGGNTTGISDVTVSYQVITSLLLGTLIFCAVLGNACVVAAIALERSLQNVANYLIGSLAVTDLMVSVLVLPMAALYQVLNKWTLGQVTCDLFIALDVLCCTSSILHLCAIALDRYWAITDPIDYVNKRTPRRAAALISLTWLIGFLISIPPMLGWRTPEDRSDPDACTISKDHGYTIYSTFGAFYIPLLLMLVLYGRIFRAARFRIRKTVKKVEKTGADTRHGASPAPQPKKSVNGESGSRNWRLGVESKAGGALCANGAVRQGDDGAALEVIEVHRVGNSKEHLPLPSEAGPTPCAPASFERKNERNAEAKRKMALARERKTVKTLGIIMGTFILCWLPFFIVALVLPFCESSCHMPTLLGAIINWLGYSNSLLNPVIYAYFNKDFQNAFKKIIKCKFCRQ
pKi: −log10 of the molar value.
EXPERIMENTAL_ENDPOINT: pKi

(P) COc1ccc(CN2CCN(CCOc3cccc4nc(C)ccc34)CC2)cc1
(Q) CC(=O)Nc1cccc(CN2CCN(CCOc3cccc4nc(C)ccc34)CC2)c1
(R) COc1cccc(CN2CCN(CCOc3cccc4nc(C)ccc34)CC2)c1
(S) CC(=O)Nc1ccc(CN2CCN(CCOc3cccc4nc(C)ccc34)CC2)cc1
(T) Cc1ccc2c(OCCN3CCN(Cc4ccccc4)CC3)cccc2n1
Hey, quick one: sort these by pKi, low to high? Please list each label once, in the requested order.
S, T, R, P, Q
(S: 6.80, T: 7.60, R: 7.90, P: 8.30, Q: 8.70)
